Values from patent US20260354380A1

System: Aedes aegypti
Experiment: whole plant or invertebrate
Assay type: in vivo
Settings: 800 ppm; larvae; 2 days
RESULT TYPE: mortality in comparison with untreated controls

STRUCTURE STRING: Cc1ccc(C(C)C)c(N2C(=O)CS/C2=N\C(=O)Nc2ccc(-n3nc(C)c(NC(=O)c4ccc(OC(F)(F)F)cc4)c3C)cc2OC(F)F)c1
ASSAY VALUE: at least 50%
--
STRUCTURE STRING: Cc1ccc(C(C)C)c(N2C(=O)CSC2=NC(=O)Nc2ccc(-n3nc(C)c(NC(=O)c4ccc(F)c(F)c4)c3C)cc2)c1
ASSAY VALUE: at least 50%
--
STRUCTURE STRING: C#Cc1ccc(C(=O)Nc2cn(-c3ccc(NC(=O)/N=C4\SCC(=O)N4c4cc(C)ccc4C(C)C)cc3)nc2C)cc1
ASSAY VALUE: at least 50%
